These measurements were taken from PubChem BioAssay.

- target-or-system: Carbonic anhydrase 2 (Homo sapiens) (UniProt P00918)
- test-summary: CAII small-molecule binders, profiling panel, biochemical, small-molecule microarray, Alexa647-labelled CAII (AID 1122)
- applied-conditions: CAII-A647 binding fluorescence, higher = more signal
composite z-score by entry:
Number only, please.

Check out these entries, answers already filled in.
C=CC[C@]1(C(=O)NCC(O)CO)N=C(c2ccc(OCCCO)cc2)O[C@H]1c1ccccc1CN=[N+]=[N-] (some centres not stated) | 0.522
O=C1O[C@H](c2ccccc2)[C@H](c2ccccc2)N2[C@H]1[C@@H](C(=O)N1CCN(c3ncccn3)CC1)[C@]1(C(=O)Nc3ccc(C#CC4(O)CCCCCC4)cc31)[C@H]2c1ccc(O)cc1 | 0.673
C[C@@]1([C@@H](NS(=O)(=O)c2cccc3cccnc23)c2ccc(-c3ccccc3)cc2)C[C@H]1C1CCCCC1 | 0.549

Challenge: Form entry - test system: Carbonic anhydrase 2 (Homo sapiens) (UniProt P00918); read-out: composite z-score; compound: C=CCOC(=O)[C@@H]1[C@H]2C(=O)O[C@H](c3ccccc3)[C@H](c3ccccc3)N2[C@H](c2ccc(OCCOC(=O)[C@H]3C[C@H]4C(=O)N[C@@H](CCCCN(C)C)C(=O)N4[C@H]3c3cccc(OCCO)c3)cc2)[C@@]12C(=O)Nc1ccccc12
Response given: 0.656

Challenge: What about COC(=O)C(CC#Cc1ccc2c(c1)[C@]1(C(=O)N2)[C@H](C(=O)NC[C@H](O)c2ccccc2)[C@H]2C(=O)O[C@H](c3ccccc3)[C@H](c3ccccc3)N2[C@@H]1c1ccc(O)cc1)C(=O)OC ?
Response given: 0.683

Challenge: Next: COC(=O)C(CC#Cc1ccc2c(c1)[C@]1(C(=O)N2)[C@H](C(=O)N2CCCCCCC2)[C@H]2C(=O)O[C@H](c3ccccc3)[C@H](c3ccccc3)N2[C@@H]1c1ccc(OCCO)cc1)C(=O)OC
Response given: 1.12

Challenge: Same lookup for C=CC[C@@]1(C(=O)NCCCOC)N=C(c2ccc(OCCCO)cc2)O[C@@H]1c1ccccc1CN=[N+]=[N-] , please.
Response given: 0.596

====

- test-summary: small-molecule microarray binders of probe aCHRDL2, primary screen, biochemical, biotinylated probe, 635/667 nm fluorescence (AID 1100)
- applied-conditions: higher = more signal
measurement-label: composite z-score
Number only, no unit.

Challenge: So what does the record say about composite z-score for Cc1cccc([C@H]2C[C@H]3C(Br)=C[C@@]2(CO)C(=O)[C@]32CO2)c1 ?
Response given: 0.382

Challenge: Moving on to the next compound: COCCOC(=O)N1C(=O)[C@@]2(c3cc(C#CC4(O)CCCCCC4)ccc31)[C@H](C(N)=O)[C@H]1C(=O)O[C@H](c3ccccc3)[C@H](c3ccccc3)N1[C@@H]2c1ccc(OCCO)cc1
Response given: 0.668

Challenge: Then this compound: C=CCC(OC(C)=O)[C@@H]1[C@@H](N(Cc2ccc(-c3ccccc3)cc2)C(=O)Cc2ccc(OC)cc2)c2cc(OCCCO)ccc2N1C(=O)c1ccc2ccccc2c1 (some centres not stated)
Response given: -0.002

Challenge: Next compound: COC(=O)[C@@]1(Cc2ccccc2)[C@H]2c3cc(C(=O)N(C)C)n(CCF)c3C[C@H]2CN1C(=O)c1ccccc1
Response given: 1.42

Challenge: Same thing, different compound: C=CCOC(=O)[C@H]1[C@@H]2C(=O)O[C@@H](c3ccccc3)[C@@H](c3ccccc3)N2[C@@H](c2ccc(OCCOC(=O)[C@@H]3C[C@@H]4C(=O)N[C@@H](Cc5ccccc5)C(=O)N4[C@@H]3c3ccc(O)cc3)cc2)[C@]12C(=O)Nc1ccc(I)cc12
Response given: -0.381

Challenge: Same again, this time with COc1ccc([Si](C)(C)[C@H]2[C@H](CC(=O)N3CCC[C@H]3CO)O[C@@]3(C(=O)N(C)c4c(Br)cc(C)cc43)[C@@H]2C)cc1
Response given: 0.244

Challenge: Next record, please: O=C(NCC(F)(F)F)[C@@H]1c2ccccc2C(=O)N(Cc2cc(C(F)(F)F)cc(C(F)(F)F)c2)[C@H]1c1ccc(CO)cc1
Response given: 0.272

====

- test-summary: small-molecule microarray binders of probe aXIP, primary screen, biochemical, NeuroSMM set, 635/667 nm fluorescence (AID 1119);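 also: probe is the protein aXip251-270 applied at 1 µg/mL to compound-printed slides; binding of probe to printed compounds measured as 667 nm fluorescence plus signal to noise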
- applied-conditions: higher = more signal, called active from +8 up or from −8 down
measurement-label: composite Z-score
Lab note: jot the number down without any unit.

Challenge: Given the entry CCOC(=O)C[C@H]1[C@H](OC(=O)c2ccc(-c3ccccc3)cc2)[C@@H](NC(=O)c2ccc(-c3ccccc3)cc2)c2cc(OCCCO)ccc2N1C(=O)c1ccccc1 , report its measured composite Z-score.
Response given: 0.884

Challenge: Note, next up: COC(=O)[C@@]1(Cc2ccc(F)cc2)[C@H]2c3cc(C(=O)N(C)C)n(Cc4cccc5ccccc45)c3C[C@H]2CN1C(=O)c1ccccc1
Response given: 0.0828

Challenge: Ok, now [N-]=[N+]=NCc1ccccc1[C@H]1OC(c2ccc(OCCCO)cc2)=N[C@@]1(Cc1ccccc1N=[N+]=[N-])C(=O)N1CCOCC1
Response given: 0.594

====

- target-or-system: Luciferin 4-monooxygenase (Photinus pyralis) (UniProt P08659)
- Sequence (P08659 whole entry, looked up): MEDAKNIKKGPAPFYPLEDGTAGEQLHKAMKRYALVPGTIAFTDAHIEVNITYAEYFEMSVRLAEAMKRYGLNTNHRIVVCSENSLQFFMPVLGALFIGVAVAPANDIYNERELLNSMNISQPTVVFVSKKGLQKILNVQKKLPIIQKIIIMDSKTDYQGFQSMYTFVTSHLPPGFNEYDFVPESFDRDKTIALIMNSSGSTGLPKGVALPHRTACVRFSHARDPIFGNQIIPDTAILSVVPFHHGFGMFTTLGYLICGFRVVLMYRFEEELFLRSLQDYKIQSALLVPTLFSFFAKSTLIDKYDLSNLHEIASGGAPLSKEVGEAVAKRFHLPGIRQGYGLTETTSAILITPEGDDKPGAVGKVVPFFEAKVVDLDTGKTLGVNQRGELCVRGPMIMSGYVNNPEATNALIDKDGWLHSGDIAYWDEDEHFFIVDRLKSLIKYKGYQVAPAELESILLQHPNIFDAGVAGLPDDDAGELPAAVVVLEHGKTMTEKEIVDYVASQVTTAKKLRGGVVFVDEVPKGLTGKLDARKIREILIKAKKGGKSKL
- test-summary: firefly luciferase enzyme inhibitors, primary screen, biochemical, luminescence, purified enzyme, 2006 set (AID 1141);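 also: cell-free assay with purified firefly luciferase at 100 ng per well in PBS; test concentration not given here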
- applied-conditions: SteadyGlo luminescence, 30 min, higher = more signal, called active from +8 up or from −8 down
Activity calls are given as the source filed them.
measurement-label: z-score

Sample answers from the record:
[N-]=[N+]=Nc1ccccc1C[C@]1(C(N)=O)COC(c2ccc(OCCCO)cc2)=N1 | -8.73 (active)
CC(C)(C)OC(=O)CC[C@]1(C(N)=O)N=C(c2ccc(OCCCO)cc2)O[C@H]1c1ccccc1N=[N+]=[N-] | -8.33 (active)
CC(C)c1ccc(NN2C(C(O)C3CCCCC3)C=CC3C(=O)N(c4ccccc4)C(=O)C32)cc1 (centres undefined) | -1.36 (inactive)

Let's switch to this compound now.
Challenge: Request the reported z-score associated with CC(C)(C)OC(=O)CC[C@@]1(C(N)=O)N=C(c2ccc(OCCCO)cc2)O[C@@H]1c1ccccc1CN=[N+]=[N-]
Response given: -1.79 (inactive)

====

- target-or-system: Homeobox protein Hox-A13 (Mus musculus) (UniProt Q62424)
- Sequence (Q62424 whole entry, looked up): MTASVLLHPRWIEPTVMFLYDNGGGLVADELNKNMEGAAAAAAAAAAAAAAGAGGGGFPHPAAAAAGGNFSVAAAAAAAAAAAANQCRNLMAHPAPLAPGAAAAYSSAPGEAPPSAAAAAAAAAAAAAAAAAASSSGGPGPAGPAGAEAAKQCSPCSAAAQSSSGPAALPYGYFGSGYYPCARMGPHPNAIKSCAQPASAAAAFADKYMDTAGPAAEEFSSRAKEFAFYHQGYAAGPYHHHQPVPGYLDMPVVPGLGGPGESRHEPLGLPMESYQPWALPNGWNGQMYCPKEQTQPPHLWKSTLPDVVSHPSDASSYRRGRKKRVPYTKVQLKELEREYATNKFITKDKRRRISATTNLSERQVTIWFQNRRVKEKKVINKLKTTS
- test-summary: inhibitors of HoxA13-DNA binding, primary screen, biochemical, fluorescence polarization, labeled oligonucleotide (AID 1185)
- applied-conditions: 15 min, higher = more signal, called active from +8 up or from −8 down
# z-score per record follows
// print number alone

Consider the following illustrative entries.
CO[C@H]1O[C@H](CO)[C@@H](OC(=O)Nc2cccc(F)c2)[C@H](OC(=O)c2cc3ccccc3[nH]2)[C@H]1OC(=O)c1cc2ccccc2[nH]1 | -0.266
O=C(c1ccccc1)N1Cc2ccccc2C[C@@]2(N=C(c3ccc(OCCCO)cc3)O[C@H]2c2ccccc2)C1=O | -2.43
O=C(NCC(F)(F)F)[C@@H]1c2ccccc2C(=O)N(Cc2cc(C(F)(F)F)cc(C(F)(F)F)c2)[C@H]1c1ccc(CO)cc1 | -2.44
CC[C@@H](O[Si](C#C[Si](C(C)C)(C(C)C)C(C)C)(C(C)C)C(C)C)c1cn([C@H](C)c2ccccc2)nn1 | 0.0519
CC(C)(C)OC(=O)CC[C@@]1(C(=O)N2CCOCC2)N=C(c2ccc(OCCCO)cc2)O[C@@H]1c1ccccc1CN=[N+]=[N-] | -4.94
COC(=O)[C@@]1(Cc2ccc(F)cc2)[C@H]2c3cc(C(=O)N(C)C)n(Cc4ccc(C(F)(F)F)nc4)c3C[C@H]2CN1C(=O)c1ccccc1 | -3.87
CCCCN1CC=CC23O[C@@H]4C=CCCOC(=O)C4[C@H]2C(=O)N(CCO)[C@@H]3C1=O (some centres undefined) | -4.53
CCOC(=O)C[C@H]1[C@H](OC(=O)Cc2ccc3c(c2)OCO3)[C@@H](NC(=O)CC(C)C)c2cc(OCCCO)ccc2N1C(=O)c1ccc2ccccc2n1 | -4.65
CCCN1C(=O)[C@@]2(c3ccc([N+](=O)[O-])cc3)CC(=O)N(C3CCCCC3)[C@@H]2c2ccc(CO)cc21 | -1.26
[N-]=[N+]=NCc1ccccc1[C@H]1OC(c2ccc(OCCCO)cc2)=N[C@@]1(CCS(=O)(=O)c1ccccc1)C(=O)NCCN1CCOCC1 | -2.67

Challenge: Value wanted: z-score (Homeobox protein Hox-A13 (Mus musculus) (UniProt Q62424)) of entry Cc1c(NC(=O)/C(C#N)=C/C=C/c2ccc([N+](=O)[O-])cc2)c(=O)n(-c2ccccc2)n1C
Response given: -4.12

Challenge: Next: COCCOC(=O)N1C(=O)[C@@]2(c3cc(C#CCNC(N)=O)ccc31)[C@H](C(=O)Nc1nc3ccccc3s1)[C@H]1C(=O)O[C@H](c3ccccc3)[C@H](c3ccccc3)N1[C@@H]2c1ccc(O)cc1
Response given: -0.879

Challenge: Also COCCOC(=O)N1C(=O)[C@@]2(c3cc(C#CCNC(N)=O)ccc31)[C@H](C(N)=O)[C@H]1C(=O)O[C@H](c3ccccc3)[C@H](c3ccccc3)N1[C@@H]2c1ccc(O)cc1 , if possible.
Response given: -3.48

Challenge: Follow-up item: CCOC(=O)C1=CCC(c2ccncc2)N(S(=O)(=O)c2ccc(C)cc2)C1 (centres undefined)
Response given: -4.63
